- Target Or System: T1, Monomeric human CD48-mmH (human)
- T1 construct: also called soluble CD48 expressed with a myc-myc-hexa-histidine C-terminal tag [mmH]
- T1 chain: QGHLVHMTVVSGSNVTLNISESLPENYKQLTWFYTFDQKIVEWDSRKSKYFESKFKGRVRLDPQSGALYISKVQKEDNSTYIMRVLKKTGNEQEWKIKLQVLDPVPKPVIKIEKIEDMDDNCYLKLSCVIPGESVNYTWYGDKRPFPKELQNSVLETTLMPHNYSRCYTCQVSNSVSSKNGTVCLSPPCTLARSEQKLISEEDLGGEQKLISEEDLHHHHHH
- Assay Method Text: SPR (Biacore T100), 25 C, antibody captured by anti-Fc, monomeric CD48-mmH in solution
// NB: equality with 200000 M⁻¹ s⁻¹ counts as false; only kon strictly below is true

Reference set (3 entries):
H4H1707N (antibody, human IgG4, V domains shown, Human IgG4 Fc (prefix H4H)) VH: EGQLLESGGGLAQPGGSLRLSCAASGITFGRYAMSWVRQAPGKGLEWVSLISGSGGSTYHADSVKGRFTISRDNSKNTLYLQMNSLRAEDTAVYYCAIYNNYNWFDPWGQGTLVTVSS VL: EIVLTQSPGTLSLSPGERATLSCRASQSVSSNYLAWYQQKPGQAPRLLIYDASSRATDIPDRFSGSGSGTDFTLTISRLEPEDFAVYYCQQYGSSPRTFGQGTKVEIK = true
H3M1766N (antibody, V domains shown, also called H2M1766N) VH: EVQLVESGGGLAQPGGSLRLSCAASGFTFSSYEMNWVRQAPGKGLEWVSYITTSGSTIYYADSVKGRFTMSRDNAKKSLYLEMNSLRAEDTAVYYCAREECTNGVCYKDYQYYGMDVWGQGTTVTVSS VL: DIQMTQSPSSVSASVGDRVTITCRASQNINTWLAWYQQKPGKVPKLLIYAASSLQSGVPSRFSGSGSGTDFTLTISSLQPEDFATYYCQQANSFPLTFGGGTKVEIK = true
H2M1710N (antibody, mouse IgG2, V domains shown, Human variable domains, mouse IgG2 Fc (prefix H2M)) VH: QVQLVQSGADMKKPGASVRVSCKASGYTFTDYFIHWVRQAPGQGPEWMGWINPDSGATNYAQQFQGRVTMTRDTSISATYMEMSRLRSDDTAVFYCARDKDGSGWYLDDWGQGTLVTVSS VL: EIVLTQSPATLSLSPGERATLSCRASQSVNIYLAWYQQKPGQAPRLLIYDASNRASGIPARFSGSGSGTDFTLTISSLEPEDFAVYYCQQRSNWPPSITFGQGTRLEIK = true

Req: Is 200000 M⁻¹ s⁻¹ strictly greater than the binder's reported kon? binder: H4H1781P (antibody, human IgG4, V domains shown, Human IgG4 Fc (prefix H4H)) VH: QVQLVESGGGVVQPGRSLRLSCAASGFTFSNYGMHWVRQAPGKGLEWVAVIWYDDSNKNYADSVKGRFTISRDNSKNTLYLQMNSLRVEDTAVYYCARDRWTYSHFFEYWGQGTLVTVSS VL: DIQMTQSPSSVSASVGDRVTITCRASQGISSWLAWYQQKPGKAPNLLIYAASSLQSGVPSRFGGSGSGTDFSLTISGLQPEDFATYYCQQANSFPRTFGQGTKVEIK
Resp: true

Req: Is 200000 M⁻¹ s⁻¹ strictly greater than the binder's reported kon? binder: H4H1770P (antibody, human IgG4, V domains shown, Human IgG4 Fc (prefix H4H)) VH: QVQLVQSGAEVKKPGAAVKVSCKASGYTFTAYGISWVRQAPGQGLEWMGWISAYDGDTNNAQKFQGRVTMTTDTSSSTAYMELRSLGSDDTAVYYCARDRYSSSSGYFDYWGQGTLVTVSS VL: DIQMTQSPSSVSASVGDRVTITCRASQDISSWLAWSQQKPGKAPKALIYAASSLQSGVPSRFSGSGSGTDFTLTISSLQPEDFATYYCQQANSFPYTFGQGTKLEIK
Resp: false

Req: Is 200000 M⁻¹ s⁻¹ strictly greater than the binder's reported kon? binder: H4H1771P (antibody, human IgG4, V domains shown, Human IgG4 Fc (prefix H4H)) VH: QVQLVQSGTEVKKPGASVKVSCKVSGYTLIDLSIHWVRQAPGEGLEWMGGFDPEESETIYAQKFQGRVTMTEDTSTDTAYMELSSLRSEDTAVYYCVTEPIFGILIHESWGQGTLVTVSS VL: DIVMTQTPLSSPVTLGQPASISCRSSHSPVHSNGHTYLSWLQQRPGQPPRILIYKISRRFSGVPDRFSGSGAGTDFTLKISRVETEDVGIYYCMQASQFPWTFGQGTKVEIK
Resp: false
